B1: library; numbered along this chain (parent)
chain: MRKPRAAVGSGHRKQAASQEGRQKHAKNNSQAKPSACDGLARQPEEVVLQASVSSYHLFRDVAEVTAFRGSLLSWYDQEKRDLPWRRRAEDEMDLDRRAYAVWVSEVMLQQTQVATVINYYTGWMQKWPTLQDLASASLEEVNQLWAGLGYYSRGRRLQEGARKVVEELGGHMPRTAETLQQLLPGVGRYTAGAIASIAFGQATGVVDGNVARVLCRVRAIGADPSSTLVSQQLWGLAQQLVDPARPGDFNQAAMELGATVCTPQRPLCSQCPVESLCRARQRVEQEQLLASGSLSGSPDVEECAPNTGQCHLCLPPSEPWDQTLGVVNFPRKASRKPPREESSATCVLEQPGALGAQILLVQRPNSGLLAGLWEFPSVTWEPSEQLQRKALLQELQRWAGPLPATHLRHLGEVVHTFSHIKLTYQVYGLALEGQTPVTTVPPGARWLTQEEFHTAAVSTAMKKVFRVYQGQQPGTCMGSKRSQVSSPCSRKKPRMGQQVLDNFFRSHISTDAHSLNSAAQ

- Variants of: B1
- Assay Overview: 8OG:A repair function score (normalized; synonymous = 0, nonsense = -1) (normalized log-likelihood score); higher = more repair activity (WT-like);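 further: cells sorted at 72 h after reporter transfection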
- Conditions: with 8OG:A DNA repair reporter (GFP) in HEK-293 MUTYH KO cells
Assign 8OG:A repair function score to each entry below.
// response body must contain only the number

Query :: Any idea what 8OG:A repair function score was measured for A334I ?
Result :: -0.198

Query :: Consider the variant T263W and give its measured 8OG:A repair function score.
Result :: -0.28

Query :: What value of 8OG:A repair function score has been reported for the following variant? A519S
Result :: 0.00395

Query :: What does the data say about its 8OG:A repair function score? Entry: A371M
Result :: -0.439

Query :: Requested field: 8OG:A repair function score. Item: E275I
Result :: -0.0114

Query :: Recorded 8OG:A repair function score for E395V , please?
Result :: -0.0171

Query :: Can you share its 8OG:A repair function score? I mean this variant: W447I
Result :: -0.784

Query :: 8OG:A repair function score for L501V ?
Result :: 0.00157

Query :: Would you kindly share the measured 8OG:A repair function score for H454T ?
Result :: 0.153

Query :: Fill blank: measured 8OG:A repair function score of the variant Q323E is ____.
Result :: -0.0118

Query :: // 8OG:A repair function score lookup, key: S153V
Result :: -0.00826

Query :: Consider the variant L134Y and give its measured 8OG:A repair function score.
Result :: -0.464

Query :: Need 8OG:A repair function score of N366H , thanks.
Result :: 0.288

Query :: Which 8OG:A repair function score is listed for E319L ?
Result :: 0.0108

Query :: 8OG:A repair function score lookup needed for S276K , thanks.
Result :: 0.0174

Query :: // returns reported 8OG:A repair function score for input T439P
Result :: 0.126

Query :: Recorded 8OG:A repair function score for K164E , please?
Result :: -0.382

Query :: Dear colleague, I am looking for the recorded 8OG:A repair function score of the following variant: K333Y
Result :: -0.0195

Query :: State the recorded 8OG:A repair function score for this entry: K481R
Result :: 0.0229

Query :: Quick check: 8OG:A repair function score of L289G ?
Result :: -0.00218

Query :: Find the recorded 8OG:A repair function score belonging to M478A and report it.
Result :: -0.0431

Query :: Entry A305K : reported 8OG:A repair function score = ?
Result :: -0.0297

Query :: Consider the variant shown here: T116V What is its recorded 8OG:A repair function score?
Result :: -0.0225

Query :: Dear colleague, I am looking for the recorded 8OG:A repair function score of the following variant: E92I
Result :: -0.0645

Query :: Would you kindly share the measured 8OG:A repair function score for L360T ?
Result :: -1.26

Query :: So what does the record say about 8OG:A repair function score for A115F ?
Result :: -0.146

Query :: # get_value(readout='8OG:A repair function score', item= V104Y )
Result :: -1.27

Query :: So what's the measured 8OG:A repair function score for this one? V301P
Result :: -0.31

Query :: Give the measured 8OG:A repair function score of S343T .
Result :: -0.0419

Query :: Given E46N , state its recorded 8OG:A repair function score.
Result :: -0.0764

Query :: Record request: 8OG:A repair function score value, item P488L
Result :: 0.00539

Query :: # lookup: 8OG:A repair function score of W85L
Result :: -0.917

The reported measurements were obtained from the supplement of paper PMC11908140.
